For each entry below, report its TGI value.
tested on: 786-0 renal; assay: NCI tumour cell line growth inhibition, 48 h
Where a SMILES comes first, the peptide text is derived from it. The star is where a group is joined. Trt = c1ccc(C(c2ccccc2)(c2ccccc2)*)cc1; Cbz = O=C(OCc1ccccc1)*

Record CCOC(=O)c1c[nH]c(C(=O)OCC)c1-c1cccn1-c1ccccc1 , field TGI: > 100 µM

Record NC1NC=NC2C1N=CN2C1OC(CO)C2[O][Sn][O]C21 (stereo not given) , field TGI: > 100 µM

Record CCS(=O)C(=O)N(O)c1ccc(Cl)cc1 (stereo not given) , field TGI: 64.3 µM

Record CSc1ncnc2c1cnn2Cc1cn(COCCO)nn1 , field TGI: > 100 µM

Record COc1ccc(C(O)/C(=N/N)c2nc3ccc(Cl)cc3[nH]c2=O)cc1 (stereo not given) , field TGI: > 100 µM

Record Clc1ccc(Cl)c(N=Nc2cc3c4c(c2)CCN4CCC3)c1 , field TGI: > 10 µM

Record Clc1nccc2c(-c3csc(-c4c[nH]c5ccc(Br)cc45)n3)c[nH]c12 , field TGI: 2.93 µM

Record CCCCC1=CSC(c2ccccc2)=C(c2ccccc2)S1 , field TGI: > 100 µM

Record COC(=O)C(CO)NC(=O)C(CSC(c1ccccc1)(c1ccccc1)c1ccccc1)NC(=O)OCc1ccccc1 (stereo not given) (Cbz-Cys(Trt)-Ser-OMe; configuration not given here) , field TGI: 46.9 µM

Record CC(C)C1CNC(=O)C2(C=NC(C(C)C)CNC(=O)C3(C=N1)CCCO3)CCCO2 (stereo not given) , field TGI: > 10 µM

* * *

test system: MDA-MB-231 breast; assay: NCI tumour cell line growth inhibition, 48 h
For each entry below, report its TGI value.
Numbers only here, please. The scale is µM.

Record COc1cc(-c2cc(/C=C/C(=O)c3ccc(F)c(F)c3)[nH]n2)cc(OC)c1OC , field TGI: 4.58

Record CCN(CC)c1ccc2nc3ccc(N=Nc4ccc(N(C)C)cc4)cc3[n+](-c3ccccc3)c2c1 , field TGI: 0.426

Record CC(C)/C=C1\CCC(CN(C)C)C1=O (centres undefined) , field TGI: 3.01

Record COC1(CC[C@@H](C)COC2OC(CO)C(O)C(O)C2O)O[C@H]2C[C@H]3[C@@H]4CC=C5C[C@@H](OC6OC(CO)C(OC7OC(C)C(O)C(O)C7O)C(O)C6OC6OC(C)C(O)C(O)C6O)CC[C@]5(C)[C@H]4CC[C@]3(C)[C@H]2[C@@H]1C (some centres undefined) , field TGI: 6.66

* * *

system: SW-620 colon; assay: NCI tumour cell line growth inhibition, 48 h
For each entry below, report its TGI value.

Record C[C@@H](CC(O)C(O)C(C)(C)O)C1CCC23CC12CCC1[C@@]2(C)CCC(O)C(C)(C)C2CC(OC2OC(CO)C(O)C(O)C2O)[C@]13C (stereo not given in full) , field TGI: > 10 µM

Record CC(C)(C)OC(=O)NC1CCCC1C(=O)C1=CCCC1 (stereo not given) , field TGI: > 100 µM

Record COc1ccccc1/C=C(/C)[N+](=O)[O-] , field TGI: 43.1 µM

Record CC(C)Oc1c(C2(c3ccccc3)SCCCS2)c(=O)c1=O , field TGI: > 100 µM

Record COc1ccc(/C=c2\c(=O)[nH]c3nc4ccccc4c(=O)n23)cc1 , field TGI: > 100 µM

* * *

For each entry below, report its TGI value.
tested on: KM12 colon; assay: NCI tumour cell line growth inhibition, 48 h

Record C[C@@]1([C@H](OC(=O)c2ccccc2)C(N)=O)CO1 , field TGI: > 100 µM

Record NC1NC=NC2C1N=CN2C1OC(CO)C2[O][Sn][O]C21 (stereo unspecified) , field TGI: > 100 µM

Record O=C1C(Cl)N(c2c(Cl)cccc2Cl)C1c1c[nH]c2ccccc12 (stereo unspecified) , field TGI: > 100 µM

Record CCS(=O)C(=O)N(O)c1ccc(Cl)cc1 (stereo unspecified) , field TGI: 47.2 µM

Record CC1=CC2C(C=C1)S(=O)(=O)N1CC21c1ccccc1 (stereo unspecified) , field TGI: > 100 µM

Record C[C@]12C=CC(=O)C=C1CC[C@@H]1[C@@H]2CC[C@@]2(C)[C@H]1CC[C@]2(O)C(N)=O , field TGI: > 100 µM

Record COc1ccc(/C=c2\c(=O)[nH]c3nc4ccccc4c(=O)n23)cc1 , field TGI: > 100 µM

Record C#Cc1cccc(Nc2ncnc3cc(NC(=O)CCl)ccc23)c1 , field TGI: 7.13 µM

Record Cc1cc2ncn(-c3nc4ccccc4nc3C(C#N)S(C)(=O)=O)c2cc1C (stereo unspecified) , field TGI: > 100 µM

Record C[C@@H](CC(O)C(O)C(C)(C)O)C1CCC23CC12CCC1[C@@]2(C)CCC(O)C(C)(C)C2CC(OC2OC(CO)C(O)C(O)C2O)[C@]13C (stereo partly specified) , field TGI: > 10 µM

Record Nc1nncc2c1c(Br)cn2C1OC(CO)C(O)C1O (stereo unspecified) , field TGI: > 100 µM

Record CO/C(N)=C(\C#N)N=Cc1ccc2ccccc2c1 , field TGI: > 100 µM

Record O=C1N=C2SC=C(NC(=S)Nc3ccccc3)N2NC12c1ccccc1-c1ccccc12 , field TGI: > 10 µM

Record O=C1CC(c2c[nH]c3ccc(F)cc23)C(=O)N1 (stereo unspecified) , field TGI: > 100 µM

Record O=C(NCCN1CCCCC1)c1ccc(Br)cc1 , field TGI: > 100 µM

Record CN(C)c1ccc(/C=C\c2ccnc3ccccc23)cc1 , field TGI: 51 µM

Record CCOCC1(COCC)CCC(c2[nH]ncc2CN(C)CCNC)CC1 , field TGI: > 100 µM

Record O=C(CS(=O)(=O)c1nc2ccccc2nc1-c1ccccc1)Nc1ccc(F)cc1 , field TGI: 97.7 µM

Record COC1(CC[C@@H](C)COC2OC(CO)C(O)C(O)C2O)O[C@H]2C[C@H]3[C@@H]4CC=C5C[C@@H](OC6OC(CO)C(OC7OC(C)C(O)C(O)C7O)C(O)C6OC6OC(C)C(O)C(O)C6O)CC[C@]5(C)[C@H]4CC[C@]3(C)[C@H]2[C@@H]1C (stereo partly specified) , field TGI: 2.65 µM

Record COc1cccc(/C=C/C(=O)c2ccc3cc(OC)ccc3c2)c1 , field TGI: 22.9 µM

Record CN1CCN(CC(=O)N(C)c2ccc(N=C(c3ccccc3)c3c(O)[nH]c4ccc(C#N)cc34)cc2)CC1 , field TGI: 6.03 µM

Record COc1ccc2[nH]c3c(c2c1)[C@H](c1ccccc1)C[C@@H]1C(=O)N(c2ccccc2)C(=O)[C@H]31 , field TGI: 43.6 µM

Record CC(=O)Nc1[nH]n(C)c(=O)c1-c1nnc(C)s1 , field TGI: > 100 µM

Record CC(C)N(C(=O)C12C3C4C1C1C2C3C41C#N)C(C)C (stereo unspecified) , field TGI: > 100 µM

Record CCCn1c2c(c3ccccc3c1=O)C(=O)c1ccccc1-2 , field TGI: > 100 µM

Record Clc1nccc2c(-c3csc(-c4c[nH]c5ccc(Br)cc45)n3)c[nH]c12 , field TGI: 5.7 µM

Record CCN1CCN(c2nc(C)cc(N(CCCNc3ccnc4cc(Cl)ccc34)Cc3ccc4c(c3)OCO4)n2)CC1 , field TGI: 10.8 µM

Record CCC(NC(C)c1ccccc1)C(=O)c1ccc(OCc2ccccc2)c(OCc2ccccc2)c1 (stereo unspecified) , field TGI: > 100 µM

Record O=C1Oc2ccccc2C1C/C(=N\Nc1ccccc1)c1ccccc1O (stereo unspecified) , field TGI: 45.8 µM

Record CC(C)=CCc1cc2c(cc1O)C1=C(C(=O)C3=C(C1=O)S(=O)(=O)CCN3)C(C=C(C)C)O2 (stereo unspecified) , field TGI: 6.99 µM

Record CCOc1ccccc1N=Nc1ccc2oc(=O)c(C(C)=O)cc2c1 , field TGI: > 100 µM

Record O=C1N/C(=N\N=C\c2ccccc2)C(c2ccccc2)O1 (stereo unspecified) , field TGI: > 100 µM

Record Cc1c(O)c(=O)ccn1CCN , field TGI: > 100 µM

Record COc1ccccc1NC(=O)C1=C(C)NC(C)=C(C(=O)Nc2ccccc2OC)C1c1ccccc1[N+](=O)[O-] , field TGI: 35 µM

Record O=C(Nc1ccc(Oc2ccc3nc(NC(=O)c4ccco4)[nH]c3c2)cc1)Nc1cc(C(F)(F)F)ccc1F , field TGI: 4.31 µM

Record COc1cc(/C=C/C(=O)c2cccc(-n3cc(-c4cc(OC)c(OC)c(OC)c4)[nH]c3=O)c2)cc(OC)c1OC , field TGI: 2.46 µM

Record COc1cnc2c(c1)C(=O)c1c-2n(CCCNC2=NCCS2)c(=O)c2cc(F)ccc12 , field TGI: 3.68 µM

Record CC(C)C1CNC(=O)C2(C=NC(C(C)C)CNC(=O)C3(C=N1)CCCO3)CCCO2 (stereo unspecified) , field TGI: > 10 µM

Record [N-]=[N+]=Nc1ccccc1-c1ccccc1[N+](=O)[O-] , field TGI: > 100 µM

Record Nc1nnc2c(-c3ccccc3)[nH]nc2n1 , field TGI: > 100 µM

Record CSc1ccc(C2=C(c3ccccc3)C(=O)OC2)cc1 , field TGI: > 77 µM
